- Tested on: K562 CRISPRi cells
- Test: Constant region variant library pooled growth screen, K562
- Type: cell-based, human
- Experimental Conditions: sgRNA constant region variants; activity relative to the original, un-modified constant region cr995
In this section, each of the molecules is paired with its reported Mean relative activity.
Reply with the value as a number alone.

Problem: Mean relative activity lookup needed for cr033 (nucleic acid, listed as DNA, chemistry not fully specified) guide: GTTAAAAAGCTAAGCTGGAAACAGCATAGCAAGTTTAAATAAGGCTAGTCCGTTATCAACTTGAAAAAGTGGCACCGAGTCGGTGCT , thanks.
Result: −0.004656

Others:
Problem: Mean relative activity lookup needed for cr891 (nucleic acid, listed as DNA, chemistry not fully specified) guide: GTTTAAGAGCTAAGCTGGAAACAGCATAGCAAGTTTAAATAAGACTAGTTCGTTATCAACTTGAAAAAGTGGTACCGAGTCGGTACT , thanks.
Result: 0.8641

Problem: Mean relative activity lookup needed for cr741 (nucleic acid, listed as DNA, chemistry not fully specified) guide: GTTTAAGAGCTAAGCTGGAAACAGCATGGCAAGTTTAAATACGGCTAGACCGTTATCAACTTGAAAAAGTGGCACCGAGTCGGTGCT , thanks.
Result: 0.06347

Problem: Mean relative activity lookup needed for cr406 (nucleic acid, listed as DNA, chemistry not fully specified) guide: GTTTAAGAGCTAAGCTGGAAACAGCATAGCAAGTTTAAATAAGGCTAGTCCGTTATTAACTTGAAAAAGTGGCACCGAGTCGGTGCT , thanks.
Result: 0.6285

Attribution: patent US20220259593A1
